system: Staphylococcus aureus; assay: Antibacterial activity against methicillin-resistant Staphylococcus aureus ATCC 33591 by NCCLS method; assay type: functional
quantityKind: MIC

| lineNotation | MIC |
| --- | --- |
| COc1ccc(CCc2ccc(-c3nc4ccc(C(=N)NC(C)C)cc4[nH]3)cc2)cc1 | 4 µg/mL |
| N=C(NC1CCCC1)c1ccc2[nH]c(-c3ccc(CCc4ccc(-c5nc6cc(C(=N)NC7CCCC7)ccc6[nH]5)cc4)cc3)nc2c1 | 0.5 µg/mL |

Below: the item to evaluate.
// query For N=C(N)c1ccc2[nH]c(-c3ccc(CCc4ccc(-c5nc6cc(C(=N)N)ccc6[nH]5)cc4)cc3)nc2c1 , what is its reported MIC?
// result > 32 µg/mL

Data provenance is ChEMBL document CHEMBL1153280.
